# test details: Viability qHTS for spleen associated tyrosine kinase inhibitor (SYKi) drug resistant MV4-11 cells (AID 1963824); note: nearly all actives have a fitted effect of over 35% in size
# condition info: SYKi-resistant MV4-11 viability, CellTiter-Glo, 72 h; series mostly up to 45 µM
Records with an inconclusive call do not appear. Active and inactive are the calls of the source. Calls come from the whole dose curve; as a rule, active = well fitted cell-killing curve with a large enough effect; inconclusive = small, poorly fitted or top-dose-only effect, or effect the other way; inactive = no such curve, though single readings can be large or run the other way.
Thanks in advance; please answer with one of these: label 1 (active), label 0 (inactive)

[
  {
    "compound": "CCCNC(C)C(=O)Nc1c(C)csc1C(=O)OC (stereo not drawn)",
    "group label": "label 0"
  },
  {
    "compound": "CC(C(=O)O)C1CCC2(C)C3C(=O)C=C4C(CCC(=O)C4(C)C)C3(C)CCC12C (stereo not drawn)",
    "group label": "label 0"
  }
]

Moving on to the next compound.
Task: Please share the test call associated with C=C(C)C(=O)O[C@H]1[C@H]2C(=C)C(=O)O[C@@H]2/C=C(\CO)CC/C=C(/C=O)[C@@H]1O .
Result: label 1

* * *

# test details: Quantitative highthroughput screen to assess conditional lethalithy of SEM cells grown in RPMI1640 with dialyzed fetal bovine serum (RPMI+ds) (AID 1963884); note: nearly all actives have a fitted effect of over 35% in size;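 for viability: 100% = DMSO control wells and 0% = empty wells without cells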
# condition info: SEM B-ALL cells, RPMI+dialyzed FBS, CellTiter-Glo viability, 48 h; series mostly up to 45.8 µM
Inconclusive results are not listed. Calls of active or inactive are those of the source. Calls come from the whole dose curve; as a rule, active = well fitted cell-killing curve with a large enough effect; inconclusive = small, poorly fitted or top-dose-only effect, or effect the other way; inactive = no such curve, though single readings can be large or run the other way.
Thanks in advance; please answer with one of these: yes (active), no (inactive)

Past entries and their recorded results:
[
  {
    "compound": "COc1ccc(-c2ccc3cc(C(=O)O)ccc3c2)cc1C12CC3CC(CC(C3)C1)C2",
    "group label": "no"
  },
  {
    "compound": "COc1cc(C=CC(=O)CC(=O)C=Cc2ccc(O)c(OC)c2)ccc1O",
    "group label": "yes"
  }
]

Task: Please share the test call associated with COc1ccc2cc(-c3nc(-c4ccc(S(C)=O)cc4)[nH]c3-c3ccncc3)ccc2c1 (stereo not given) .
Result: no

Task: Please share the test call associated with Oc1ccc(-c2ccc(-c3cc(Nc4cccc(CNC5CC5)c4)n[nH]3)cc2)c(O)c1 .
Result: yes

Task: Please share the test call associated with Cc1ccc2c(c1)c1c(n2CCc2ccc(C)nc2)CCN(C)C1 .
Result: no

* * *

# test details: Viability qHTS for spleen associated tyrosine kinase inhibitor (SYKi) drug resistant MV4-11 cells (AID 1963824); note: nearly all actives have a fitted effect of over 35% in size; note: potency is the fitted concentration of half-maximal effect
# condition info: SYKi-resistant MV4-11 viability, CellTiter-Glo, 72 h; series mostly up to 45 µM
Results filed as inconclusive are left out. Activity calls are given as the source filed them. Calls follow the shape of the dose curve; as a rule, active = well fitted cell-killing curve with a large enough effect; inconclusive = small, poorly fitted or top-dose-only effect, or effect the other way; inactive = no such curve, though single readings can be large or run the other way.
measured metric: Potency

The following molecules have reported results that may help.
[
  {
    "molecule": "O=C(c1ccc(F)c(F)c1Nc1ccc(I)cc1F)N1CC(O)(C2CCCCN2)C1 (stereo not given)",
    "Potency": "0.326 µM (active)"
  },
  {
    "molecule": "CS(=O)(=O)c1ccc([C@H](CC2CCCC2)C(=O)Nc2nccs2)cc1",
    "Potency": "13 µM (active)"
  },
  {
    "molecule": "CC(=O)Oc1cccc(O)c1",
    "Potency": "inactive"
  },
  {
    "molecule": "COC(=O)C1=CO[C@@H](O[C@@H]2O[C@H](CO)[C@@H](O)[C@H](O)[C@H]2O)[C@@H]2[C@@H](C(=O)OC)[C@@H](O)C(O)[C@H]12 (stereo not given in full)",
    "Potency": "inactive"
  }
]

Read the next record carefully.
Task: Find the recorded Potency belonging to C[C@@]12C[C@]3(O)O[C@H](O1)[C@]1(COC(=O)c4ccccc4)[C@H]3C[C@@]12O[C@@H]1O[C@H](COC(=O)c2ccccc2)[C@@H](O)[C@H](O)[C@H]1O and report it.
Result: inactive

* * *

# test details: Quantitative highthroughput screen to assess conditional lethalithy of SEM cells grown in RPMI1640 with dialyzed fetal bovine serum (RPMI+ds) (AID 1963884); note: nearly all actives have a fitted effect of over 35% in size;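 for viability: 100% = DMSO control wells and 0% = empty wells without cells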
# condition info: SEM B-ALL cells, RPMI+dialyzed FBS, CellTiter-Glo viability, 48 h; series mostly up to 45.8 µM
Inconclusive results are not listed. Activity calls are given as the source filed them. The call rests on the fitted dose curve; in most records, active means well fitted cell-killing curve with a large enough effect; inconclusive means small, poorly fitted or top-dose-only effect, or effect the other way; inactive means no such curve, though single readings can be large or run the other way.
Thanks in advance; please answer with one of these: 1 = active, -1 = inactive

Past entries and their recorded results:
[
  {
    "compound": "CCN(CC)CC#CCOC(=O)C(O)(c1ccccc1)C1CCCCC1 (stereo not given)",
    "group label": -1
  },
  {
    "compound": "COc1ccc2c(c1OC)C(=O)OC2[C@H]1c2c(cc3c(c2OC)OCO3)CCN1C (stereo not given in full)",
    "group label": 1
  },
  {
    "compound": "CCN(CC)CCOc1ccc(Cc2ccccc2)cc1",
    "group label": 1
  },
  {
    "compound": "CC1(C)NC(=O)N(c2ccc([N+](=O)[O-])c(C(F)(F)F)c2)C1=O",
    "group label": -1
  },
  {
    "compound": "O=C1c2c(O)cc(O)cc2OC(c2ccc(O)c(O)c2)C1O (stereo not given)",
    "group label": -1
  },
  {
    "compound": "O=C(O)C1CCCN(CCC=C(c2ccccc2)c2ccccc2)C1 (stereo not given)",
    "group label": -1
  },
  {
    "compound": "CN1CCN(CCOc2cc(OC3CCOCC3)c3c(Nc4c(Cl)ccc5c4OCO5)ncnc3c2)CC1",
    "group label": 1
  },
  {
    "compound": "Cc1cc(Nc2ncc(Cl)c(Nc3ccccc3S(=O)(=O)C(C)C)n2)c(OC(C)C)cc1C1CCNCC1",
    "group label": 1
  }
]

Task: Please share the test call associated with COc1cc([C@@H]2c3cc4c(cc3[C@H](O)[C@H]3COC(=O)[C@H]23)OCO4)cc(OC)c1OC .
Result: 1

Task: Please share the test call associated with CCCCCOC(=O)Nc1nc(=O)n([C@@H]2O[C@H](C)[C@@H](O)C2O)cc1F (stereo not given in full) .
Result: -1

* * *

# test details: Viability qHTS for spleen associated tyrosine kinase inhibitor (SYKi) drug resistant MV4-11 cells (AID 1963824); note: nearly all actives have a fitted effect of over 35% in size
# condition info: SYKi-resistant MV4-11 viability, CellTiter-Glo, 72 h; series mostly up to 45 µM
Inconclusive results are not listed. Activity calls are given as the source filed them. Calls follow the shape of the dose curve; as a rule, active = well fitted cell-killing curve with a large enough effect; inconclusive = small, poorly fitted or top-dose-only effect, or effect the other way; inactive = no such curve, though single readings can be large or run the other way.
Thanks in advance; please answer with one of these: active, inactive

Past entries and their recorded results:
[
  {
    "compound": "COc1c(OC2OC(CO)C(O)C(O)C2O)ccc(O)c1C(=O)OCc1ccccc1O[C@@H]1O[C@H](CO)[C@@H](O)[C@H](O)[C@H]1O (some centres undefined)",
    "group label": "inactive"
  },
  {
    "compound": "CC(C)(C)c1ccc(C(=O)Nc2cn3cc(-n4ccnc4)ccc3n2)cc1",
    "group label": "active"
  },
  {
    "compound": "O=c1cc(-c2ccccc2)oc2cc(O)c(O)c(O)c12",
    "group label": "active"
  }
]

Task: Please share the test call associated with COc1cc2c(cc1O)CCN[C@]21CS[C@@H]2c3c(OC(C)=O)c(C)c4c(c3[C@H](COC1=O)N1[C@@H]2[C@H]2c3c(cc(C)c(OC)c3O)C[C@@H]([C@@H]1O)N2C)OCO4 .
Result: active

Task: Please share the test call associated with CCN(CC)CCCC(C)Nc1nc(C)cc(Nc2ccc3nc(C)cc(N)c3c2)n1 (centres undefined) .
Result: active

Task: Please share the test call associated with CC1CCN(C(c2ccc(F)cc2)c2ccc(C(C)C(=O)O)cc2-c2ccc(C(F)(F)F)cc2)CC1 (centres undefined) .
Result: active

Task: Please share the test call associated with Cc1ccc(Sc2ccccc2N2CCNCC2)c(C)c1 .
Result: active

Task: Please share the test call associated with OC(Cn1cncn1)(Cn1cncn1)c1ccc(F)cc1F .
Result: inactive

Task: Please share the test call associated with O=C(O)Cc1sc(-c2ccccc2)nc1-c1ccc(Cl)cc1 .
Result: inactive

* * *

# test details: Cellular viability qHTS for adrenocortical cancer (ACC) cell line NCI-H295R (AID 1963990); note: nearly all actives have a fitted effect of over 60% in size
# condition info: CellTiter-Glo ATP luminescence, 48 h; series mostly up to 46.1 µM
# Excerpt: PI: Naris Nilubol, MD Surgical Oncology Program, National Cancer Institute (NCI) National Institute of Health (NIH), Bethesda, Maryland Adrenocortical cancer (ACC) is a rare malignancy with poor survival outcomes and few treatment options. Currently, mitotane is the only FDA-approved therapy for ACC. […] Through a quantitative high-throughput drug screen (qHTS), we identified auranofin (AF), a thioredoxin reductase (TXNRD) inhibitor, as a promising candidate drug. […]
Records with an inconclusive call do not appear. The source made the active and inactive calls. Calls follow the shape of the dose curve; as a rule, active = well fitted cell-killing curve with a large enough effect; inconclusive = small, poorly fitted or top-dose-only effect; inactive = flat fitted curve, though single readings scatter.
Thanks in advance; please answer with one of these: 1 (yes) for active, 0 (no) for inactive

[
  {
    "item smiles": "CCNCCS(=O)(=O)NC[C@@]1(c2ccccc2)SC(NC(=O)C(C)(C)C)=NN1C(=O)C(C)(C)C",
    "group label": "1 (yes)"
  }
]

Task: Please share the test call associated with O=C(/C=C/c1ccc(CN(CCO)CCc2c[nH]c3ccccc23)cc1)NO .
Result: 1 (yes)

Task: Please share the test call associated with CC(C)c1nn(-c2c(Cl)cccc2Cl)c2nc(Cc3ccc(OCCO)cc3)[nH]c(=O)c12 .
Result: 1 (yes)

Task: Please share the test call associated with CC1(C)[C@@H]2CC[C@@]1(C)C(=O)C2 .
Result: 0 (no)

Task: Please share the test call associated with Cc1nc2ccc(CN(C)c3ccc(C(=O)N[C@@H](CCC(=O)O)C(=O)O)s3)cc2c(=O)[nH]1 .
Result: 0 (no)
